Data credit: patent US20190092852A1

Target: T1, cyno IL-33 N-His (cynomolgus monkey)
T1 chain: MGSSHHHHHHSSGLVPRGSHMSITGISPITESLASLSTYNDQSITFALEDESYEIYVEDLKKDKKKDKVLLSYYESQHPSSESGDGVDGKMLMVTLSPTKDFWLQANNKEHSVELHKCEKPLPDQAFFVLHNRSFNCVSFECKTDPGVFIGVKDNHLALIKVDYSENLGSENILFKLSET
Assay: SPR Biacore T200, 37 C
measure: Kd (nM)
Return type: number; implicit unit nM.

Input line: Report Kd for H4H9629P (antibody, IgG4, V domains shown, also called RG4) VH: EVQLVESGGGLVQPGGSLRLSCAASGFTFRSFAMSWVRQAPGKGLELVSDLRTSGGSTYYADSVKGRLTISRDNSKNTLYLQMNSLRAEDTAVYYCAKSHYSTSWFGGFDYWGQGTLVTVSS VL: DIQMTQSPSSVSASVGDRVTITCRASQGFSSWLAWYQQKPGKAPKLLIYAASSLQSGVPSRFSGSGSGTDFTLTITNLQPEDFATYYCQQANSFPLTFGGGTKVEIK
Output line: 547

Input line: Report Kd for H4H9672P (antibody, V domains shown) VH: EVQLVESGGGLVQPGGSLRLSCAASGFTLRSYVMYWVRQGPGKGLEGVSGISGSSGGTYYTDSVKGRFTISRDNSKNTLFLQMNSLRAEDTAVYFCARSVYSTTWYGGFQHWGQGTLVTVSS VL: DIQMTQSPSSVSVSVGDRVTITCRASQVISSWLAWYQLKPGKAPKLLIYAASSLQSGVPSRFSGSGSGTDFTLTISGLQPEDFAVYYCQQTNSFPLTFGGGTKVEIK
Output line: 13
